Study system: T1, FcRL6, overexpressed on 3T3 cells (UniProt Q6DN72 20-434, limits assumed)
T1 construct: whole, on cells
T1 sequence (looked up): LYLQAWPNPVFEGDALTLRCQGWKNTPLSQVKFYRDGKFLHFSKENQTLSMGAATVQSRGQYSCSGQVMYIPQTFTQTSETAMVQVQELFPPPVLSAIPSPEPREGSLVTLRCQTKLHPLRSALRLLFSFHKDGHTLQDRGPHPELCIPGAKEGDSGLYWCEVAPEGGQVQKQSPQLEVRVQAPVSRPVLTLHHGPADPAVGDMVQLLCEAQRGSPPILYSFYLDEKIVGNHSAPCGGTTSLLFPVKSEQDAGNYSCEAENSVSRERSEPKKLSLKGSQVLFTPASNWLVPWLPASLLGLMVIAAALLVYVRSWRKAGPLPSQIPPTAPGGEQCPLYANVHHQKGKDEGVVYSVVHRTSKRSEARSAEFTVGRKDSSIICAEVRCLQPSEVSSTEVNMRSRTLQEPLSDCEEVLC
Test details: phage clone on 3T3-FcRL6 cells
Attribute measured: binding result

[
  {
    "Binder": "ET200-011 (scFv, screened as phage clone; entry is VL-linker-VH-His tag-HA tag) scFv: QSVVTQPPSVSAAPGQRVTISCSGSSSNISIYDVSWYQQLPGTAPKLLIYGNNKRPSGIADRFSGSTSGTSATLGITGLQTGDEADYYCGTWDDSLSGGVFGGGTKLTVLGSRGGGGSGGGGSGGGGSLEMAQMQLVQSGAEVKKPGSSVKVSCEASGGTLSSYAINWVRQAPGQGLEWMGGIIPMFGTAHYAQKFQGRVTITADESTKTAYMELSSLRSEDTAVYYCARGVHYASFDHWGQGTLVTVSSTSGQAGQHHHHHHGAYPYDVPDYAS",
    "Attribute measured": "binding result",
    "Endpoint value": "no binding"
  },
  {
    "Binder": "ET200-018 (scFv, screened as phage clone; entry is VL-linker-VH-His tag-HA tag) scFv: QAVLTQPPSTSGTPGQRVTISCSGSSSNIGRNGVNWYQQLPGAAPKVLIYNDNQRPSGVPDRVSGSQSGSSGTLAIDGLRSEDEADYYCAAWDDSLHGVVFGGGTKLTVLGSRGGGGSGGGGSGGGGSLEMAQVQLVQSGAEVKKPGASVKVSCKVSGYTLNELSMHWVRQAPGKGLEWMGGFDPEDGETIYAQKFQGRVTMTEDTSTDTAYMELSSLRSEDTAVYYCARGGYGDSWGQGTLVTVSSTSGQAGQHHHHHHGAYPYDVPDYAS",
    "Attribute measured": "binding result",
    "Endpoint value": "no binding"
  }
]
